This section presents molecules with their documented inhibition values.
# Target under test: Nucleotide-binding oligomerization domain-containing protein 2 (Homo sapiens, UniProt Q9HC29)
# Sequence (Q9HC29 whole entry, the tested form may be a part): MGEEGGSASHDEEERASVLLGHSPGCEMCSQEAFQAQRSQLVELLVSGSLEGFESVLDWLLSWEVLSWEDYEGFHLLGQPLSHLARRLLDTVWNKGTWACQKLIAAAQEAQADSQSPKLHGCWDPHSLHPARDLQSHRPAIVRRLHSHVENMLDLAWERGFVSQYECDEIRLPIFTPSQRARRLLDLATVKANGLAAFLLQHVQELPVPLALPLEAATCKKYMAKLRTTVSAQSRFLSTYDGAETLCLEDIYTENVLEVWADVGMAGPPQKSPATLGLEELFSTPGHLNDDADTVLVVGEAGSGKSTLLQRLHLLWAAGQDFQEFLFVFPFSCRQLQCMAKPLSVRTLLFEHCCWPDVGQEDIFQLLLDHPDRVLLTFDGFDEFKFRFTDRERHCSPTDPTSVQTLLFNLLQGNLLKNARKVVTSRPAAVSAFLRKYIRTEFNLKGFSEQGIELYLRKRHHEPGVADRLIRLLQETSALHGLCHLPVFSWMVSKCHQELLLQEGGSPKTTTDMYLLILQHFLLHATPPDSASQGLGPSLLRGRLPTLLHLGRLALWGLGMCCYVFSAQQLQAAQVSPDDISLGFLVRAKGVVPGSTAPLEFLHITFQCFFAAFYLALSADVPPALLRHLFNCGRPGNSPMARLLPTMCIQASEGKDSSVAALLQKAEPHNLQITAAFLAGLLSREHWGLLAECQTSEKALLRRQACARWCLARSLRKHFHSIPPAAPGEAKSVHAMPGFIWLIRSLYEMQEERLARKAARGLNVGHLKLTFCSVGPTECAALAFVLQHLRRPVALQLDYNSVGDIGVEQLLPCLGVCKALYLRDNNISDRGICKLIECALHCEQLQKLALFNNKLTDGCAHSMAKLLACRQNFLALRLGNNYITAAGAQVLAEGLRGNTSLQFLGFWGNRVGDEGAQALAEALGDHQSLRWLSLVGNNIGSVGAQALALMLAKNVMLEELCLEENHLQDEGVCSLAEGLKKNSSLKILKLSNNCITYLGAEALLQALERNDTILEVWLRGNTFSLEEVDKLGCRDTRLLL
# Experiment summary: Inhibition of human NOD2 at 1 uM relative to control

See these solved cases before continuing.
[
  {
    "Smiles code": "O=c1c2ccncc2nc(Cl)n1-c1ccc(Cl)c(NS(=O)(=O)c2c(F)cccc2F)c1",
    "Reported result": "< 10%"
  },
  {
    "Smiles code": "Cc1nc2ccc(Cl)cc2c(=O)n1-c1ccc(Cl)c(NS(=O)(=O)c2ccccc2F)c1",
    "Reported result": "< 10%"
  },
  {
    "Smiles code": "CS(=O)(=O)c1ccc2nc(Cl)n(-c3ccc(Cl)c(NS(=O)(=O)c4c(F)cccc4F)c3)c(=O)c2c1",
    "Reported result": "36.9%"
  },
  {
    "Smiles code": "CS(=O)(=O)c1ccc2nc(Cl)n(-c3ccc(Cl)c(NS(=O)(=O)c4ccc5ncsc5c4)c3)c(=O)c2c1",
    "Reported result": "16.1%"
  }
]

Please turn your attention to the following entry.
-- ask Which inhibition is reported for this molecule? N#Cc1ccc2nc(Cl)n(-c3ccc(Cl)c(NS(=O)(=O)c4c(F)cccc4F)c3)c(=O)c2c1
-- reply < 10%

---

# Target under test: Toll-like receptor 4 (Homo sapiens) (UniProt O00206)
# Sequence (O00206 whole entry): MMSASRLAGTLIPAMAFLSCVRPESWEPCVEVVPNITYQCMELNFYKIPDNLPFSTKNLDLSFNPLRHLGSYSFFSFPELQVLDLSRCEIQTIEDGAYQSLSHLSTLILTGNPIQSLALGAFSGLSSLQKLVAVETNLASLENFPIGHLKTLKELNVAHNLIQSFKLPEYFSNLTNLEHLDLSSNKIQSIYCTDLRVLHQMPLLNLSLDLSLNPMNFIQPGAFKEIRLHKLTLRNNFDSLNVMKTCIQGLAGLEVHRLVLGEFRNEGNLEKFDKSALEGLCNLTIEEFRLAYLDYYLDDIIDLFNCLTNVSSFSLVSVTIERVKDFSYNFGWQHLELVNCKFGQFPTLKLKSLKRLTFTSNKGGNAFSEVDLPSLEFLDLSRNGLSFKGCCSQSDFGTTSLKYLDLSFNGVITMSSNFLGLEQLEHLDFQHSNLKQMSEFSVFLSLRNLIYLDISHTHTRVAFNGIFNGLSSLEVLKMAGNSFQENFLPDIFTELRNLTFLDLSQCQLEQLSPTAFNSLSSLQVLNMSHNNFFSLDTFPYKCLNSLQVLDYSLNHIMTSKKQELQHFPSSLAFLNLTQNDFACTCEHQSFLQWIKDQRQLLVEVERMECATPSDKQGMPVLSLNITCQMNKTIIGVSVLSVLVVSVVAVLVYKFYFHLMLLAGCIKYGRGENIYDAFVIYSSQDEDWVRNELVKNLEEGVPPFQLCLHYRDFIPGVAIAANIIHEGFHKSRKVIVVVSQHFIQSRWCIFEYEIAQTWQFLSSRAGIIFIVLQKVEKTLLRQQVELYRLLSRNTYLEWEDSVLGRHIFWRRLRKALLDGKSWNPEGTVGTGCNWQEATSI
# Experiment summary: Inhibition of human TLR4 at 1 uM relative to control
Experimental endpoint: inhibition (%)
Enter your answer as a number in %; do not include the unit.

[
  {
    "Smiles code": "CS(=O)(=O)c1ccc2nc(Cl)n(-c3ccc(Cl)c(NS(=O)(=O)c4c(F)cccc4F)c3)c(=O)c2c1",
    "inhibition, %": 10
  }
]

-- ask Need inhibition, item CS(=O)(=O)c1ccc2nc(Cl)n(-c3ccc(Cl)c(NS(=O)(=O)c4ccc5ncsc5c4)c3)c(=O)c2c1
-- reply 15.8

---

# Target under test: Nucleotide-binding oligomerization domain-containing protein 1 (Mus musculus, UniProt Q8BHB0)
# Sequence (Q8BHB0 whole entry): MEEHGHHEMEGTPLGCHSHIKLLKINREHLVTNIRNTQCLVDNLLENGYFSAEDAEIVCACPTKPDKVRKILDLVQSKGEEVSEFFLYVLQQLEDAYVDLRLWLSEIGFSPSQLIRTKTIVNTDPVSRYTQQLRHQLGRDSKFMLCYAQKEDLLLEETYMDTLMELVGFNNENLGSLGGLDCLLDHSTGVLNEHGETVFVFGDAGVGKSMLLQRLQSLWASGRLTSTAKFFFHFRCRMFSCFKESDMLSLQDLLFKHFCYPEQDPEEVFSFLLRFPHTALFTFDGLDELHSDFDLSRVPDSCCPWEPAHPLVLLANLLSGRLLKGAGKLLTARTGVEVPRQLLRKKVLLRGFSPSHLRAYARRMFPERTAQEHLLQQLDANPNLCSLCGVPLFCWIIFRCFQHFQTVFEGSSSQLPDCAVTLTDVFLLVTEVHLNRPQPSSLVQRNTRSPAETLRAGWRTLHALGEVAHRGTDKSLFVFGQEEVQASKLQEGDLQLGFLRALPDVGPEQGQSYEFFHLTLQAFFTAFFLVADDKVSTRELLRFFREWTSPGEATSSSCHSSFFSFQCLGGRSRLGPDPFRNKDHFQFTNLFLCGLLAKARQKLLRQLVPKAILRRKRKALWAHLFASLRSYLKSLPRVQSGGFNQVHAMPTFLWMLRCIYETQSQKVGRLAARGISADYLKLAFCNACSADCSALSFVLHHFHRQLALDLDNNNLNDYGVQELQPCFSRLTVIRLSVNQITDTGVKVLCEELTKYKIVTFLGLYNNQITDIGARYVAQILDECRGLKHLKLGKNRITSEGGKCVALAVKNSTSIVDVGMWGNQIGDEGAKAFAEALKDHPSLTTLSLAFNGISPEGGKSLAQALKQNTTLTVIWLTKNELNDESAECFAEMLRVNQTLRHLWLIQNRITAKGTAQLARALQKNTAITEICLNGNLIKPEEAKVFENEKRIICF
# Experiment summary: Antagonist activity at mouse NOD1 expressed in HEK-Blue cells assessed as decrease in SEAP secretion incubated for 3 hrs followed by C12-iE-DAP stimulation for 20 hrs by spectrophotometry
# Type: cell-based, HEK-Blue mNOD1
# pIC50 annotations
Bear in mind: pIC50 is minus log10 of a mol/L concentration; give just that figure.

-- ask pIC50 for O=c1c2cc(C(F)(F)F)ccc2nc(Cl)n1-c1ccc(Cl)c(NS(=O)(=O)c2c(F)cccc2F)c1 ?
-- reply 6.39

-- ask Need pIC50, item C=CC(=O)Nc1nc2ccc(Cl)cc2c(=O)n1-c1ccc(Cl)c(NS(=O)(=O)c2ccccc2F)c1
-- reply 5.14

-- ask Recorded pIC50 for O=c1c2cc(Cl)ncc2nc(Cl)n1-c1ccc(Cl)c(NS(=O)(=O)c2cccnc2)c1 , please?
-- reply 6.42
